test: pharmacokinetic behavior in baboons, 20 mg/kg (Tables 5 and 7); type: in vivo; details: baboon, plasma, 20 mg/kg, 1.5 hours
Attribute: concentration at 1.5 h
observed.property: concentration at 1.5 h

>  <compound>
CC(C)(ON=C(C(=O)NC1C(=O)N2C(C(=O)O)=C(COC(=O)c3ccc(NS(=O)(=O)CCN)cc3)CSC12)c1csc(N)n1)C(=O)O (centres unmarked) [C, reference compound]

>  <result>
112 µg/mL

$$$$
>  <compound>
CO/N=C(\C(=O)NC1C(=O)N2C(C(=O)O)=C(COC(=O)c3ccc(NS(=O)(=O)CCN)c(O)c3)CSC12)c1csc(N)n1 (centres unmarked)

>  <result>
164 µg/mL

$$$$

----------
assay: pharmacokinetic behavior in baboons, 20 mg/kg (Tables 4 and 6); assay type: in vivo; conditions: baboon, plasma, 20 mg/kg (Table 6)

>  <compound>
CC(C)(O/N=C(\C(=O)NC1C(=O)N2C(C(=O)O)=C(COC(=O)c3ccc(NC(=O)[C@@H](N)CCCN)c(O)c3)CSC12)c1csc(N)n1)C(=O)O (stereo partly drawn) [SR 44128]

>  <Tmax / h>
2

$$$$
>  <compound>
CC(C)(O/N=C(\C(=O)NC1C(=O)N2C(C(=O)O)=C(COC(=O)c3ccc(NC(=O)C(N)CCN)c(O)c3)CSC12)c1csc(N)n1)C(=O)O (stereo not drawn) [SR 44130]

>  <Tmax / h>
1.5

$$$$
>  <compound>
CC(C)(ON=C(C(=O)NC1C(=O)N2C(C(=O)O)=C(COC(=O)c3ccc(NC(=O)CCN)cc3)CSC12)c1csc(N)n1)C(=O)O (stereo not drawn) [Product B, reference compound]

>  <Tmax / h>
1.5

$$$$
>  <compound>
CC(C)(ON=C(C(=O)NC1C(=O)N2C(C(=O)O)=C(COC(=O)c3ccc(NC(=O)CN)cc3)CSC12)c1csc(N)n1)C(=O)O (stereo not drawn) [Product A, reference compound]

>  <Tmax / h>
0.75

$$$$
>  <compound>
CC(C)(O/N=C(\C(=O)NC1C(=O)N2C(C(=O)O)=C(COC(=O)c3ccc(NC(=O)CCN)c(O)c3)CSC12)c1csc(N)n1)C(=O)O (stereo not drawn) [SR 43904]

>  <Tmax / h>
1.5

$$$$
>  <compound>
CC(C)(O/N=C(\C(=O)NC1C(=O)N2C(C(=O)O)=C(COC(=O)c3ccc(NC(=O)CN)c(O)c3)CSC12)c1csc(N)n1)C(=O)O (stereo not drawn) [SR 43753]

>  <Tmax / h>
2

$$$$

----------
assay: pharmacokinetic behavior in baboons, 20 mg/kg (Tables 4 and 6); type: in vivo; details: baboon, plasma, 20 mg/kg, 90 minutes
# note: boundary value 100 µg/mL maps to label 0; concentration at 1.5 h below it maps to label 1

>  <compound>
CC(C)(O/N=C(\C(=O)NC1C(=O)N2C(C(=O)O)=C(COC(=O)c3ccc(NC(=O)CN)c(O)c3)CSC12)c1csc(N)n1)C(=O)O (stereo not drawn)

>  <class>
label 0

$$$$
>  <compound>
CC(C)(ON=C(C(=O)NC1C(=O)N2C(C(=O)O)=C(COC(=O)c3ccc(NC(=O)CN)cc3)CSC12)c1csc(N)n1)C(=O)O (stereo not drawn) [Product A, reference compound]

>  <class>
label 1

$$$$
>  <compound>
CC(C)(O/N=C(\C(=O)NC1C(=O)N2C(C(=O)O)=C(COC(=O)c3ccc(NC(=O)C(N)CCN)c(O)c3)CSC12)c1csc(N)n1)C(=O)O (stereo not drawn)

>  <class>
label 0

$$$$
>  <compound>
CC(C)(ON=C(C(=O)NC1C(=O)N2C(C(=O)O)=C(COC(=O)c3ccc(NC(=O)CCN)cc3)CSC12)c1csc(N)n1)C(=O)O (stereo not drawn) [Product B, reference compound]

>  <class>
label 1

$$$$
>  <compound>
CC(C)(O/N=C(\C(=O)NC1C(=O)N2C(C(=O)O)=C(COC(=O)c3ccc(NC(=O)CCN)c(O)c3)CSC12)c1csc(N)n1)C(=O)O (stereo not drawn)

>  <class>
label 1

$$$$
>  <compound>
CC(C)(O/N=C(\C(=O)NC1C(=O)N2C(C(=O)O)=C(COC(=O)c3ccc(NC(=O)[C@@H](N)CCCN)c(O)c3)CSC12)c1csc(N)n1)C(=O)O (stereo partly drawn)

>  <class>
label 0

$$$$
